Here the recorded TGI is given for each entry.
# Test system: NCI-H226 lung
# assay explanation: NCI tumour cell line growth inhibition, 48 h
measured endpoint: TGI (µM)

> print(dat)
                                    compound  modifier.sign  observed.result
 1  COc1ccc(NC(=O)CC(=O)n2nc(C)c(N=Nc3ccc(C)c(C)c3)c2C)cc1              >              100
 2  CCOC(=O)C1C=C2O[C@@H]3OC4(CCCCC4)O[C@@H]3C2[C@H]2C(=O)C=CC(=O)[C@@]12C(=O)OC (stereo partly specified)              =             36.4
 3  CC(=O)Nc1ccc(Nc2cc(=O)n(C)c(=O)[nH]2)cc1              >              100
 4  CC(Cc1ccc(Cl)cc1Cl)NO (stereo unspecified)              >              100
 5  CCOC(=O)c1cnc(SCc2ccc(Cl)c(Cl)c2)nc1N1CC1              =             18.9
 6  C=C(c1ccccc1N)[C@@]1(O)C[C@H](/C(=C\C)CO)C[C@@H]1NCc1ccccc1              =             33.4
 7                    Nc1ccn(C=C=CCO)c(=O)n1              >             1000
 8  Cc1cc(NC(=O)C2c3ccccc3C(=O)N(CC(C)C)C2c2cccs2)no1 (stereo unspecified)              >              100
 9           CCOC(=O)c1cccc(=O)c(C(=O)OCC)c1              =             45.4
10  Cc1nc2c(o1)C(=O)c1ccccc1C2=NC1CCCCC1N (stereo unspecified)              =             3.75
11  O=C(CCCN1CCC2(CC1)C(=O)NC(=O)N2c1ccccc1)c1ccc(F)cc1              >              100
